biological target: Ca2+-activated potassium channel (Gardos channel) of erythrocytes (Homo sapiens, UniProt O15554); construct: endogenous in cells; assay: Gardos channel assay
pIC50: −log10 of the molar value.
Recorded endpoint: pIC50

Consider the following illustrative entries.
| Compound | pIC50 |
| --- | --- |
| CN1Cc2ccccc2C(c2ccccc2)c2ccccc21 (stereo not drawn) | 5.89 |
| Cc1ccc(C(=O)N2Cc3ccccc3C(c3ccccc3)c3ccccc32)cc1 (stereo not drawn) | < 5.00 |
| CN1Cc2ccccc2C(c2ccccc2)c2cc(Br)ccc21 (stereo not drawn) | < 5.00 |
| Clc1ccccc1C1c2ccccc2CNc2ccccc21 (stereo not drawn) | 6.05 |
| c1ccc(CN2Cc3ccccc3C(c3ccccc3)c3ccccc32)cc1 (stereo not drawn) | < 5.00 |

Each compound below has a recorded value; state its pIC50.
1. Nc1ccc(C(=O)N2Cc3ccccc3C(c3ccccc3Cl)c3ccccc32)cc1 (stereo not drawn)
2. COc1ccc2c(c1)CNc1ccc(Cl)cc1C2c1ccccc1Cl (stereo not drawn)
3. COc1cccc(C(=O)N2Cc3ccccc3C(c3ccccc3)c3ccccc32)c1 (stereo not drawn)
4. COc1cccc2c1C(c1ccccc1Cl)c1cc(Cl)ccc1N(C(=O)c1ccc([N+](=O)[O-])cc1)C2 (stereo not drawn)
5. O=C(c1ccc([N+](=O)[O-])cc1)N1Cc2ccccc2C(c2ccccc2)c2ccccc21 (stereo not drawn)
6. CNc1ccc(C(=O)N2Cc3ccccc3C(c3ccccc3Cl)c3ccccc32)cc1 (stereo not drawn)

Result:
1: < 5.00; 2: < 5.00; 3: < 5.00; 4: < 5.00; 5: < 5.00; 6: < 5.00

----------
system: A549; assay: SRB antiproliferative assay A549; assay type: cell-based; settings: Homo sapiens, A549, A549, 5% FCS/3 days; read-out: Test Compound IC50 Value in Cell Lines
Recorded endpoint: pIC50
Answers are plain numbers, as −log10 of the molar value.

Sample answers from the record:
| Compound | System under test | pIC50 |
| --- | --- | --- |
| CNc1ccc(C(=O)N2Cc3ccccc3C(c3ccccc3Cl)c3ccccc32)cc1 (stereo not drawn) [Compound 33] | A549 | 5.16 |
| COc1ccc2c(c1)CN(C(=O)c1ccc([N+](=O)[O-])cc1)c1ccc(Cl)cc1C2c1ccccc1Cl (stereo not drawn) [Compound 30] | A549 | 5.77 |
| O=C(Nc1ccccc1)N1Cc2ccccc2C(c2ccccc2Cl)c2ccccc21 (stereo not drawn) [Compound 32] | A549 | 5.16 |

As a next step, examine the compound that follows.
Q: Give its pIC50 value. Item: O=C(Oc1ccccc1)N1Cc2ccccc2C(c2ccccc2Cl)c2ccccc21 (stereo not drawn) [Compound 26]
Result: 5.15

----------
Could you please report measured IC50 for the items listed next?
test system: L929; experiment: SRB assay normal cells L929; format: cell-based; details: L929 (Normal mouse), 5% FCS/5 day incubation; read-out: Test Compound IC50
Answers are plain numbers, in nM.

Example entries begin here.
| Molecule | Unit label | IC50 |
| --- | --- | --- |
| O=C(c1ccc([N+](=O)[O-])cc1)N1Cc2ccccc2C(c2ccccc2)c2ccccc21 (stereo not drawn) | nM | 900 |
| O=C(c1ccc([N+](=O)[O-])cc1)N1Cc2ccccc2C(c2ccccc2Cl)c2ccccc21 (stereo not drawn) | nM | 600 |

Below: the item to evaluate.
Q: Give its IC50 value. Item: COc1cccc2c1C(c1ccccc1Cl)c1cc(Cl)ccc1N(C(=O)c1ccc([N+](=O)[O-])cc1)C2 (stereo not drawn)
Result: 900

----------
Provide the reported pIC50 of each item.
test system: GM; assay: SRB assay normal cells GM; format: cell-based; conditions: GM (Normal human), 5% FCS/5 day incubation; read-out: Test Compound IC50
pIC50: −log10 of the molar value.

| Compound | Recorded value |
| --- | --- |
| COc1cccc2c1C(c1ccccc1Cl)c1cc(Cl)ccc1N(C(=O)c1ccc([N+](=O)[O-])cc1)C2 (stereo not drawn) | < 6.00 |
| COc1ccc(C(=O)N2Cc3ccccc3C(c3ccccc3Cl)c3ccccc32)cc1 (stereo not drawn) | < 6.00 |
| O=C(c1ccc([N+](=O)[O-])cc1)N1Cc2ccccc2C(c2ccccc2Cl)c2ccccc21 (stereo not drawn) | 6.05 |
| O=C(c1ccc([N+](=O)[O-])cc1)N1Cc2ccccc2C(c2ccccc2)c2ccccc21 (stereo not drawn) | < 6.00 |

Respectfully, I request pIC50 for each entry included below.
1. COc1cc([C@@H]2c3cc4c(cc3[C@@H](O[C@@H]3O[C@@H]5CO[C@@H](C)O[C@H]5[C@H](O)[C@H]3O)[C@H]3COC(=O)[C@H]23)OCO4)cc(OC)c1O [VP-16, Etoposide, reference compound]
2. COc1ccc2c(c1)CN(C(=O)c1ccc([N+](=O)[O-])cc1)c1ccc(Cl)cc1C2c1ccccc1Cl (stereo not drawn)

Result:
5.85
< 6.00

----------
tested on: A549; assay: SRB antiproliferative assay A549; type: cell-based; conditions: Homo sapiens, A549, A549, 2% FCS/3 days; read-out: Test Compound IC50 Value in Cell Lines
Recorded endpoint: IC50 (µM)
Numbers only, in µM.

Q: Endpoint output: IC50 of CN1Cc2ccccc2C(c2ccccc2Cl)c2ccccc21 (stereo not shown) . Value?
Result: 11.4

----------
test system: NIH 3T3 mouse fibroblast cells; test: Mitogenic assay (mitogen-induced cell proliferation); format: cell-based; conditions: NIH3T3; NIH 3T3 mouse fibroblast cells, mitogen-induced cell proliferation
Recorded endpoint: IC50

Q: Fill blank: measured IC50 of the compound O=C(c1ccc([N+](=O)[O-])cc1)N1Cc2ccccc2C(c2ccccc2Cl)c2ccccc21 (stereo not shown) is ____.
Result: 40 to 500 nM

----------
system: MCF7; assay: SRB antiproliferative assay MCF7; assay type: cell-based; conditions: Homo sapiens; MCF7 (Breast), 5% FCS/5 day incubation; read-out: Test Compound IC50
Answer each item with its documented pIC50.
Give bare numbers, as −log10 of the molar value.

| Compound | pIC50 |
| --- | --- |
| COc1cccc2c1C(c1ccccc1Cl)c1cc(Cl)ccc1N(C(=O)c1ccc([N+](=O)[O-])cc1)C2 (stereo not drawn) [Compound 31] | 6.15 |

Q: Field request: pIC50 | item: COc1ccc2c(c1)CN(C(=O)c1ccc([N+](=O)[O-])cc1)c1ccc(Cl)cc1C2c1ccccc1Cl (stereo not drawn) [Compound 30]
Result: 5.89

----------
target: Ca2+-activated potassium channel (Gardos channel) of erythrocytes (Homo sapiens, UniProt O15554); construct: endogenous in cells; assay: Gardos channel assay
Recorded endpoint: IC50

| Compound | IC50 |
| --- | --- |
| O=C(c1ccc2ccccc2c1)N1Cc2ccccc2C(c2ccccc2)c2ccccc21 (stereo not shown) | > 10 µM |
| O=C(Oc1ccccc1)N1Cc2ccccc2C(c2ccccc2Cl)c2ccccc21 (stereo not shown) | > 10 µM |
| O=C(Nc1ccc([N+](=O)[O-])cc1)N1Cc2ccccc2C(c2ccccc2Cl)c2ccccc21 (stereo not shown) | 0.071 to 0.099 µM |
| c1ccc(C2c3ccccc3CNc3ccccc32)cc1 (stereo not shown) | 0.775 µM |
| COc1ccc(C(=O)N2Cc3ccccc3C(c3ccccc3)c3ccccc32)cc1 (stereo not shown) | > 10 µM |
| COc1cccc2c1C(c1ccccc1Cl)c1cc(Cl)ccc1NC2 (stereo not shown) | 0.502 to 0.692 µM |

Provide reported IC50 for each item, in the same order as listed.
1. COc1ccc2c(c1)CN(C(=O)c1ccc(Cl)cc1)c1ccc(Cl)cc1C2c1ccccc1Cl (stereo not shown)
2. CN1Cc2ccccc2C(c2ccccc2Cl)c2ccccc21 (stereo not shown)
3. COc1ccc(C(=O)N2Cc3ccccc3C(c3ccccc3Cl)c3ccccc32)cc1 (stereo not shown)
4. COC(=O)N1Cc2ccccc2C(c2ccccc2)c2ccccc21 (stereo not shown)
5. COc1ccc2c(c1)CN(C(=O)c1ccc([N+](=O)[O-])cc1)c1ccc(Cl)cc1C2c1ccccc1Cl (stereo not shown)

Result:
["> 10 µM", "0.384 µM", "> 10 µM", "0.236 µM", "> 10 µM"]

----------
tested on: L929; experiment: SRB assay normal cells L929; type: cell-based; conditions: L929 (Normal mouse), 5% FCS/5 day incubation; read-out: Test Compound IC50
pIC50: −log10 of the molar value.
Provide the recorded pIC50 for the entries that follow.

Guide cases for pIC50, answers given:
| Molecule | pIC50 |
| --- | --- |
| COc1ccc(C(=O)N2Cc3ccccc3C(c3ccccc3Cl)c3ccccc32)cc1 (stereo not drawn) | < 6.00 |
| COc1ccc2c(c1)CN(C(=O)c1ccc([N+](=O)[O-])cc1)c1ccc(Cl)cc1C2c1ccccc1Cl (stereo not drawn) | < 6.00 |

Consider now this further molecule.
Q: Need pIC50, item COc1cc([C@@H]2c3cc4c(cc3[C@@H](O[C@@H]3O[C@@H]5CO[C@@H](C)O[C@H]5[C@H](O)[C@H]3O)[C@H]3COC(=O)[C@H]23)OCO4)cc(OC)c1O [VP-16, Etoposide, reference compound]
Result: > 5.90
